Source: the MegaScale stability set (Tsuboyama et al. 2023)

folding stability dG values for the variants below.
B1: EHEE_rd2_0191 (parent)
chain: TTEYTFTDDEEARRAIEELKKRGLTFRYEKHGTTWRVRVD

# Variants of: B1
# Run description: folding stability dG (cDNA display proteolysis); higher = more stable
# Experimental parameters: PBS, room temperature
Your answer is read as kcal/mol, so omit the unit and give the number.

// known answers, use as guide
1) T2S :: 1.68
2) E3S :: 1.55
3) T2P :: 0.931
4) I16C :: 1.58
5) G32L :: 0.796
6) L19F :: 2.64
7) D40L :: 2.78
8) H31G :: 0.625

Noted for H31W : its folding stability dG reads 1.89

Reported folding stability dG ( E3L ) = 2.25
